Target: T1, human SIRPγ isoform 1 (human, UniProt Q9P1W8 29-147)
T1 construct: also called Gamma; Human SIRPg
T1 sequence (Q9P1W8 29-147 limits assumed): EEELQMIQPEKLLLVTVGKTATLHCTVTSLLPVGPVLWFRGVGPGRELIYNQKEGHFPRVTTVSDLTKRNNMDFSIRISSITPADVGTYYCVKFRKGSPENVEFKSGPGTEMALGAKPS
Test: SPR, antibody on GLC chip

# Binder, Kd, nM
data = [
    ("antibody 119 variant, light chain Mut / heavy chain wt (antibody, V domains shown) VH: DVQLLESGGGVVQPGGSLRLSCAASGFSFSNFAMTWVRQAPGEGLEWVSTIGSGDTYYADSVKGRFTISRDNSKNTLYLQMNSLRAEDTAVYYCAKDSTVSWSGDFFDYWGLGTLVTVSS VL: EIVLTQSPATLSVSPGERATLSCRASQNVKNDLAWYQQKPGQAPRLLIYAARIRETGIPARFSGSGSGTEFTLTISSLQSEDFAVYYCQQYYDWPPFTFGGGTKVEIK", 0.233),
    ("antibody 119 variant, light chain Mut / heavy chain Mut (antibody, V domains shown) VH: EVQLLESGGGVVQPGGSLRLSCAASGFSFSNFAVTWVRQAPGKGLEWVSTIGSGDTYYADSVKGRFTISRDNSKNTLYLQMNSLRAEDTAVYYCAKDSTVSWSGDFFDYWGQGTLVTVSS VL: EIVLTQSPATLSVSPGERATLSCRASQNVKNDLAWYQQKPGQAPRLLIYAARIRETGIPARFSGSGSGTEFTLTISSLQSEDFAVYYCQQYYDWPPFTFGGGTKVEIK", 0.336),
    ("antibody 135 variant, light chain Mut / heavy chain Mut (antibody, V domains shown) VH: EVQLVESGGGVVQPGGSLRLSCAASGFSFSIYAVSWVRQAPGKGLEWVSTIGADDTYYADSVKGRFTISRDNSKNTLYLQMNSLRAEDTAVYYCAKDSTVGWSGDFFDYWGQGTLVTVSS VL: EIVLTQSPATLSVSPGERVTLSCRASQNVRSDIAWYQQKPGQAPRLLIYAASSRDTGIPARFSGSGSGTDFTLTISSLQSEDFGVYYCQQYYDWPPFTFGGGTKVEIK", 0.733),
]
